settings: 298.15 K, Pendant drop shape
measureName: surface tension liquid-gas (mN/m)
Answer with a number only, understood to be in mN/m.

For orientation, consider the following solved cases.
// lookup surface tension liquid-gas for `Cc1cccc(C)c1` 28.36

// lookup surface tension liquid-gas for `Cc1ccc(C)cc1` 27.89

// lookup surface tension liquid-gas for `CC(C)OC(C)C` 17.31

// lookup surface tension liquid-gas for `COC(C)(C)C` 19.25

# ---- query molecule ----
// lookup surface tension liquid-gas for `Cc1ccccc1C` 29.35
